# maps each entry to its pIC50
- Test system: T47D cells
- Assay summary: Cell viability (cell kill) assay
- Type: cell-based
- Test context: T47D; Table 12; 3 days; read-out: IC50
Here pIC50 is given on a logarithmic scale as minus log10 of the concentration in mol/L.

// worked examples, pIC50 included
- H1H6765P-DM1: anti-PRLR antibody H1H6765P conjugated to DM1 through an SMCC linker (conjugate) VH: EVQLVESGGGVVRPGGSLRLSCVGSGFSFDDHGMNWVRQGPGKGLEWVSGFNWNGGSTNYAESVKGRFTISRDNARNSLFLQMNSLRAEDTALYYCVRGRSGWFNDAFDVWGPGTMVTVSS VL: EIVLTQSPGTLSLSPGERATLSCRASQTINSNYLAWYRQKPGQTPRLLIYGTSSRATGIPDRFSGSGSGTDFSLTISRLEPEDFAVFYCQQYAGLPTFGPGTKVDIK: 8.79
- H1H6803P-DM1 (conjugate) VH: EVQLVESGGGVVRPGGSLRLSCAASGFKFDDYGMTWVRHVPGKGLEWVSGINWNGGRTGYTDSVKGRFTISRDNAKNSLYLQMNSLRAEDTALYHCAGARRDAFDIWGQGTMVTVSS VL: DIQMTQSPSSLSASIGDRVTITCRASQNIIKYLNWYQQNAGKAPKLLIYTASSLQSGVPSRFSGSGSGTDFTLTISSLQPEDFATYYCQQSSSSPYTFGQGTKLEIK: 8.06

Task: Item under review: H1H6960N-DM1 (conjugate) VH: EVQLVESGGGLVKPGGSLRLSCAASGITFSSYSMNWVRQAPGKGLEWVSSISTRSSLIHYADSVKGRFTISRDNAKNSLYLQMNSLRDEDTAVYYCARWDAAAAFDYWGQGTLVIVSS VL: DIQLTQSPSFLSASVGDRVTITCWASQGISSYLAWYQQKPGKAPKLLIYVASTLQSGVPSRFSGSGSGTEFTLTISSLQPEDFATYFCQQLNSYPLTFGGGTKVEIK . Reported pIC50?
Result: 8.29

Task: Item under review: H1H6959N2-DM1 (conjugate) VH: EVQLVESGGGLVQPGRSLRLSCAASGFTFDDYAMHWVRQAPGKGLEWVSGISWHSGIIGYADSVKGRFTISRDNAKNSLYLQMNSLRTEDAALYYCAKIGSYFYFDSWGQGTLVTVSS VL: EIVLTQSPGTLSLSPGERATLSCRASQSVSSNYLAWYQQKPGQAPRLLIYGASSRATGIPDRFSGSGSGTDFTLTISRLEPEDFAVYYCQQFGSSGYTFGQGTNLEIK . Reported pIC50?
Result: 7.31

Task: Item under review: H1H6975N-DM1 (conjugate) VH: EVHLVESGGGLVQPGGSLRLSCAASGFTFSSYEMNWVRQTPGKGLEWISHISSRSVIIYYADSVKGRFTISRDNAKNSLFLQMNSLRAEDTAVYFCAGITIFGIPEYWGQGTLVTVSS VL: EIVLTQSPATLSLSPGERATLSCRASQSVSSYFAWYQQKPGQAPRLLIYDASSRATGIPTRFSGSGSGTDFTLTISSLEPEDFAVYYCQQRSSWPITFGQGTRLEIK . Reported pIC50?
Result: 8.16

Task: Item under review: H1H6793P-DM1 (conjugate) VH: EVQLVESGGGLVQPGGSLRLSCAASGFSFSIYAMSWFRQAPGKGLEWVSAINGRGDGTHYADSVKGRFTISRDNSKTTLYLQMSSLRAEDTAVYYCAKPVMSTNGFDIWGQGTMVTVSS VL: DIQMTQSPSTLSASVGDRVTITCRASQSISSWLAWYQLKPGKAPKLLIYKASNLESGVPSRFSGSGSGTEFTLTISSLQPDDFATYYCQQYNIYWTFGQGTKVEIK . Reported pIC50?
Result: 7.95
